# assay-protocol: Toxicity liver stage against HepG2, at 10uM
# Type: cell-based
# Parameters: test concentration 10 uM, cell line HepG2-A16-CD81EGFP
# condition-description: human, HepG2-A16-CD81EGFP cells; read-out: INHIBITION
measured-metric: cytotoxicity at 10 µM (%)
Numbers only, in %.

# example entries with known answers
{"compound": "Cc1cc(C)c(CNc2cnn(CC(O)CN(C)C)c2)c(C)c1 (stereo not drawn)", "cytotoxicity at 10 µM, %": 15}
{"compound": "Cc1oncc1C(=O)N1CC[C@H]2[C@H](C[C@@H](CN3CCCC3)N2C)C1", "cytotoxicity at 10 µM, %": 0.286}

Please state cytotoxicity at 10 µM for every compound in the list that follows.
1. CCc1cnc(N2CC3(CCN(S(=O)(=O)C4CC4)C3)C2)nc1
2. CCCNC(=O)C1CCCN(Cc2csc(C(C)(C)C)n2)C1 (stereo not drawn)
3. CN(C)c1ncc(I)c(C2CCCN2S(C)(=O)=O)n1 (stereo not drawn)
4. CCc1cnc(CN2CCC(N(C)Cc3noc(C4CC4)n3)C2)o1 (stereo not drawn)
5. Cc1cccnc1NCCNC(=O)c1cnc(-c2ccccn2)nc1O

A)
-109
-3.14
3.8
-10.2
26.4

----------
I'd be grateful if you could share measured cytotoxicity at 10 µM for these entries.
# assay-protocol: Toxicity liver stage against HepG2, at 10uM
# Assay type: cell-based
# Design: test concentration 10 uM, cell line HepG2-A16-CD81EGFP
# condition-description: human, HepG2-A16-CD81EGFP cells; read-out: INHIBITION
Answers are plain numbers, in %.

{"molecule": "CS(=O)(=O)N1C[C@@H]2COC[C@H](C(=O)Nc3cnccn3)[C@@H]2C1", "cytotoxicity at 10 µM / %": 14.6}

Need cytotoxicity at 10 µM for each of these molecules.
1. O=C(CC1CCCC1)NCCn1ccc(-c2ccccn2)n1
2. CN(CC(=O)NC1CC1)C(=O)c1csc(Br)c1
3. Cc1c(Br)c(C(F)(F)F)nn1C(C)C(=O)O (stereo unspecified)
4. Cc1nc(C)n(CC2CCCN2CC(=O)NC2CCOCC2)n1 (stereo unspecified)
5. CC(C)CCS(=O)(=O)N1CCCC(c2nncn2C(C)C)C1 (stereo unspecified)

A)
1. 5.5
2. -0.872
3. 8.05
4. -4.43
5. 5.04

----------
# assay-protocol: Toxicity liver stage against HepG2, at 10uM
# Format: cell-based
# Set-up: test concentration 10 uM, cell line HepG2-A16-CD81EGFP
# condition-description: human, HepG2-A16-CD81EGFP cells; read-out: INHIBITION
Can you tell me cytotoxicity at 10 µM for the items I'm about to list?
Answers are plain numbers, in %.

{"compound": "COCCn1cnnc1C(C)NC(=O)c1[nH]c2c(C)cc(C)cc2c1C (stereo unspecified)", "units-symbol": "%", "cytotoxicity at 10 µM": -9.11}
{"compound": "Cc1nc(Nc2ccc(Cl)cn2)sc1C(=O)NC(C)C", "units-symbol": "%", "cytotoxicity at 10 µM": 14}

Please supply cytotoxicity at 10 µM for each of the following items, keeping them in order.
1. Cc1ccc(CC(=O)N2CSCC2C(=O)N(C)Cc2ccco2)o1 (stereo unspecified)
2. CCOCC1CN(S(=O)(=O)Cc2ccccc2)Cc2nccn2C1 (stereo unspecified)
3. CCN1CCCC(c2cc(Nc3cnccn3)nc(C)n2)C1 (stereo unspecified)
4. Cc1cccc(S(=O)(=O)N2CCCC3(CCCN3S(C)(=O)=O)C2)c1 (stereo unspecified)

A)
-4.32
-105
-12.9
7.28

Data provenance: ChEMBL document CHEMBL4513216
